# Tgt: T1, IL-1β (UniProt P01584 117-269)
# T1 construct: Antigen of XPA23
# Experiment: Biacore, Fab periplasmic extract
Attribute Measured: fold difference in affinity against the original (fold)
Give your result in fold as a bare value.

So what's the measured fold difference in affinity against the original for this one? XPA23 heavy chain V50L (Fab, V domains shown, Fab, periplasmic extract; also called C5A V50L) VH: EVQLLESGGGLVQPGGSLRLSCAASGFTFSKYFMFWVRQAPGKGLEWVSLISPSGGMTRYADSVKGRFTISRDNSKNTLYLQMNSLRAEDTAVYYCARVGYGGNSDYWGQGTLVTVSS VL: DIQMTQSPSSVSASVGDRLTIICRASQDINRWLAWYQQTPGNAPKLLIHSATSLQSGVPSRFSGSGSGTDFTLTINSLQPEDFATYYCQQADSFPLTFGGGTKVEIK
0.09

Another binder to check: XPA23 heavy chain Y32G (Fab, V domains shown, Fab, periplasmic extract; also called C5A Y32G) VH: EVQLLESGGGLVQPGGSLRLSCAASGFTFSKGFMFWVRQAPGKGLEWVSVISPSGGMTRYADSVKGRFTISRDNSKNTLYLQMNSLRAEDTAVYYCARVGYGGNSDYWGQGTLVTVSS VL: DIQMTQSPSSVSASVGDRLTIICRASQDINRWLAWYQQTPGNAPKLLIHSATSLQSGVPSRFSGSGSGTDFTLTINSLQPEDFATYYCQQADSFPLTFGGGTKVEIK
1
